Target: Intestinal-type alkaline phosphatase (Bos taurus)
Assay: Inhibition of bovine intestinal alkaline phosphatase assessed as residual enzyme activity at 0.1 mM in presence of 1% DMSO at pH 10.4 at 37 degC relative to untreated control
Property label: Activity (%)

- Compound: "COc1ccc(Oc2c(-c3ccccc3C#N)sc3ccccc23)cc1"
  Property label: "Activity"
  Recorded measurement: 106
- Compound: "O=Cc1c(-c2ccccc2[N+](=O)[O-])sc2ccccc12"
  Property label: "Activity"
  Recorded measurement: 116
- Compound: "COc1cc(Oc2csc3ccccc23)cc(OC)c1OC"
  Property label: "Activity"
  Recorded measurement: 129

[P] [O-][s+]1cc(Br)c2ccccc21 (stereo not drawn)
[Q] N#Cc1c(-c2ccc3ccccc3c2)sc2ccccc12
[R] COc1ccc(C(=O)c2csc3ccccc23)cc1
[S] COC(=O)C(Cc1c(-c2ccc(C(F)(F)F)cc2)sc2ccccc12)NCc1ccccc1 (stereo not drawn)
Which order do these items take when sorted by rising Activity? List them. Provide your answer as the labels ordered per the instruction. Q, R, S, P
(Q: 18%, R: 40%, S: 63%, P: 105%)

[P] N#Cc1sc2ccccc2c1-c1cccnc1
[Q] N#Cc1ccc(Oc2c(-c3ccccc3C#N)sc3ccccc23)cc1
[R] COc1c(-c2ccccc2C#N)sc2ccccc12
rank_up(items): orders items by reported Activity in ascending numerical order. # answer = labels listed in requested order R, Q, P
(R: 57%, Q: 82%, P: 120%)

[P] FC(F)(F)Cc1c(-c2cccnc2)sc2ccccc12
[Q] COc1c(-c2ccccc2)sc2ccccc12
[R] Oc1ccccc1N1CCN(c2csc3ccccc23)CC1
[S] O=Cc1c(-c2ccc(Cl)cc2)sc2ccccc12
Sequence the entries by Activity, beginning with the highest number. Arrange the labels as the request states and list them. P, Q, R, S

[a] NCc1c(-c2ccccc2)sc2ccccc12
[b] COc1ccc(Oc2csc3ccccc23)cc1
[c] Ic1cc2ccccc2s1
[d] Cc1ccccc1-c1sc2ccccc2c1C#N
Please order the records by their reported Activity, lowest number first. Provide your answer as the labels ordered per the instruction. d, c, b, a

---

Species: Sus scrofa
Experiment: Inhibition of porcine kidney tissue non-specific alkaline phosphatase assessed as residual enzyme activity at 0.4 mM in presence of 4% DMSO at pH 10.4 at 37 degC relative to untreated control
Property label: Activity (%)

- Compound: "COc1ccc(C(=O)c2c(-c3ccc(OC)cc3)sc3ccccc23)cc1"
  Property label: "Activity"
  Recorded measurement: 108
- Compound: "N#Cc1cc2ccccc2s1"
  Property label: "Activity"
  Recorded measurement: 105
- Compound: "Cc1ccccc1-c1sc2ccccc2c1C#N"
  Property label: "Activity"
  Recorded measurement: 85
- Compound: "COc1ccc(-c2sc3ccccc3c2C=O)cc1"
  Property label: "Activity"
  Recorded measurement: 99
- Compound: "[O-][s+]1cc(N2CCCCC2)c2ccccc21 (stereo unspecified)"
  Property label: "Activity"
  Recorded measurement: 101
- Compound: "O=[N+]([O-])c1ccccc1-c1sc2ccccc2c1-c1ccccc1[N+](=O)[O-]"
  Property label: "Activity"
  Recorded measurement: 88

---

Organism: Sus scrofa
Test: Inhibition of porcine kidney tissue non-specific alkaline phosphatase assessed as residual enzyme activity at 0.4 mM in presence of 4% DMSO at pH 10.4 at 37 degC relative to untreated control
Property label: Activity (%)

Consider the worked cases shown below.
- Molecule: "COc1cc(-c2sc3ccccc3c2C#N)cc(OC)c1OC"
  Property label: "Activity"
  Recorded measurement: 91
- Molecule: "NCc1c(-c2ccccc2)sc2ccccc12"
  Property label: "Activity"
  Recorded measurement: 76
- Molecule: "[O-][s+]1cc(N2CCOCC2)c2ccccc21 (stereo not drawn)"
  Property label: "Activity"
  Recorded measurement: 111
- Molecule: "FC(F)(F)COc1cc2ccccc2s1"
  Property label: "Activity"
  Recorded measurement: 100
- Molecule: "O=Cc1csc2ccccc12"
  Property label: "Activity"
  Recorded measurement: 85

[I] c1ccc(Oc2c(-c3ccccc3)sc3ccccc23)cc1
[II] Ic1cc2ccccc2s1
Input pair: I , II . Output: entry with lower Activity. Your answer should be the label attached to the chosen record. II
(II: 54%, I: 91%)
